FYI, the data here is from patent US20240408082A1.

# Tested on: central nervous system cancer
# procedure summary: 3D clonogenic assay, Example 2, central nervous system cancer
# Type: cell-based
# condition label: n=6 models, read-out: geom. mean abs. IC50
# Description: The present study investigated plinabulin for anticancer activity ex vivo in 68 out of 71 originally planned patient-derived xenograft (PDX) models representing major cancer types. Experiments were performed using a 3D clonogenic assay in a 96-well format with colony count based on image analysis as a read-out. By using this assay, the investigational compound was assessed for the ability to inhibit anchorage independent growth and ex vivo colony formation of tumor cells in semi-solid medium. […]
parameter: IC50 (nM)
Report the value in nM with no unit label.

Data request, read-out IC50, for CC(C)(C)c1[nH]cnc1/C=c1\[nH]c(=O)/c(=C/c2ccccc2)[nH]c1=O
426

----------
# Test system: soft tissue sarcoma models
# procedure summary: 3D clonogenic assay, Example 2, soft tissue sarcoma models
# Format: cell-based
# condition label: n=8 models, read-out: geom. mean abs. IC50
parameter: pIC50
Just the number, please; pIC50 means minus log10 of the concentration in mol/L.

Any idea what pIC50 came out for CC(C)(C)c1[nH]cnc1/C=c1\[nH]c(=O)/c(=C/c2ccccc2)[nH]c1=O [plinabulin] on soft tissue sarcoma models?
5.59

----------
# System: 68 PDX models of various histotypes
# procedure summary: 3D clonogenic assay, Example 2, all PDX models
# Assay type: cell-based
# condition label: all 68 PDX models, treatment from day 7 to day 8, read-out: geometric mean absolute IC50, tumor colony formation
parameter: IC50 (nM)
Report the value in nM with no unit label.

Data request, read-out IC50, for CC(C)(C)c1[nH]cnc1/C=c1\[nH]c(=O)/c(=C/c2ccccc2)[nH]c1=O
600

----------
# System: osteosarcoma
# procedure summary: 3D clonogenic assay, Example 2, osteosarcoma
# Type: cell-based
# condition label: n=3 models, read-out: geom. mean abs. IC50
parameter: pIC50
Just the number, please; pIC50 means minus log10 of the concentration in mol/L.

Data request, read-out pIC50, for CC(C)(C)c1[nH]cnc1/C=c1\[nH]c(=O)/c(=C/c2ccccc2)[nH]c1=O
6.93
